experiment: Pharmacokinetic properties in rats; assay type: in vivo; details: rat, plasma, Intravenous (1 mg/kg)
assay_readout: MRT (min)

                        smiles_string  assay_readout  obs_value
0  COc1cc2cc(C(F)(F)CCC(=O)O)sc2cc1OC            MRT       51.2

====

Attribute: Fold change (ratio relative to the control experiment), Average value
molecular target: human-derived interferon gene stimulating protein (Homo sapiens, UniProt Q86WV6, G230A/H232R/R293Q/R71H); assay: THP1-Blue-ISG reporter cell screening for activation of interferon gene stimulating protein and promotion of IFN-β expression; details: 10 μM, THP1-Blue-ISG cells, 24 hours, OD650; average of two experiments
Sequence (Q86WV6 whole entry R71H/G230A/H232R/R293Q): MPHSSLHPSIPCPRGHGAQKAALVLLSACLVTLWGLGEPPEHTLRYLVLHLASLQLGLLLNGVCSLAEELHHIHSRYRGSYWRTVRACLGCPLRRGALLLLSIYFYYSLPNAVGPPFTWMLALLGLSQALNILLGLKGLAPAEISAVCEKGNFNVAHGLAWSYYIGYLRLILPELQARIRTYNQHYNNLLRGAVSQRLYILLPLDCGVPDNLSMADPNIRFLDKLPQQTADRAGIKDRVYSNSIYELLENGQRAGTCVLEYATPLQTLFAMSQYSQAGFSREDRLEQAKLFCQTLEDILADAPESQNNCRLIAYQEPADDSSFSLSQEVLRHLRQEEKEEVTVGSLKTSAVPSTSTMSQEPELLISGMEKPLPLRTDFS
assay_readout: Fold change (ratio relative to the control experiment), Average value

In [3]: df
Out[3]:
                              smiles_string  obs_value
0  CO/C1=C(\OC)C/C(F)=c2/cc(C(F)(F)CCC(=O)N(O)C(C)C)s/c2=C/C1      30.07
1  COc1cc2cc(C(F)(F)CCC(=O)N(O)Cc3ccccc3)sc2cc1OC      25.69
2       C=Cc1cc2cc(C(F)(F)CCC(=O)O)sc2cc1OC      29.66
3  COc1cc2cc(C(F)(F)CCC(=O)N(O)C(F)(F)c3ccccc3)sc2cc1OC      26.96

====

molecular target: human-derived interferon gene stimulating protein (Homo sapiens, UniProt Q86WV6, G230A/H232R/R293Q/R71H); assay: THP1-Blue-ISG reporter cell screening for activation of interferon gene stimulating protein and promotion of IFN-β expression; details: 10 μM, THP1-Blue-ISG cells, 24 hours, OD650
Attribute: Fold change (ratio relative to the control experiment), First experiment
assay_readout: Fold change (ratio relative to the control experiment), First experiment

                                   compound  obs_value
0  CO/C1=C(\OC)C/C(F)=c2/cc(C(F)(F)CCC(=O)N(O)C(C)C)s/c2=C/C1 [Compound S21]      27.51
1  COc1cc2cc(C(F)(F)CCC(=O)N(O)C(F)(F)c3ccccc3)sc2cc1OC [Compound S12]      22.38
2  C=Cc1cc2cc(C(F)(F)CCC(=O)O)sc2cc1OC [Compound S29]      25.26

All figures here come from patent US12312324B2.
